// provenance: paper PMC10786891

Task for the reader: assign each of the following binders its reported Kd.
Target: T1, EsCas13d, nuclease-dead (Eubacterium siraeum, UniProt B0MS50, R295A;H300A;R849A;H854A)
T1 sequence: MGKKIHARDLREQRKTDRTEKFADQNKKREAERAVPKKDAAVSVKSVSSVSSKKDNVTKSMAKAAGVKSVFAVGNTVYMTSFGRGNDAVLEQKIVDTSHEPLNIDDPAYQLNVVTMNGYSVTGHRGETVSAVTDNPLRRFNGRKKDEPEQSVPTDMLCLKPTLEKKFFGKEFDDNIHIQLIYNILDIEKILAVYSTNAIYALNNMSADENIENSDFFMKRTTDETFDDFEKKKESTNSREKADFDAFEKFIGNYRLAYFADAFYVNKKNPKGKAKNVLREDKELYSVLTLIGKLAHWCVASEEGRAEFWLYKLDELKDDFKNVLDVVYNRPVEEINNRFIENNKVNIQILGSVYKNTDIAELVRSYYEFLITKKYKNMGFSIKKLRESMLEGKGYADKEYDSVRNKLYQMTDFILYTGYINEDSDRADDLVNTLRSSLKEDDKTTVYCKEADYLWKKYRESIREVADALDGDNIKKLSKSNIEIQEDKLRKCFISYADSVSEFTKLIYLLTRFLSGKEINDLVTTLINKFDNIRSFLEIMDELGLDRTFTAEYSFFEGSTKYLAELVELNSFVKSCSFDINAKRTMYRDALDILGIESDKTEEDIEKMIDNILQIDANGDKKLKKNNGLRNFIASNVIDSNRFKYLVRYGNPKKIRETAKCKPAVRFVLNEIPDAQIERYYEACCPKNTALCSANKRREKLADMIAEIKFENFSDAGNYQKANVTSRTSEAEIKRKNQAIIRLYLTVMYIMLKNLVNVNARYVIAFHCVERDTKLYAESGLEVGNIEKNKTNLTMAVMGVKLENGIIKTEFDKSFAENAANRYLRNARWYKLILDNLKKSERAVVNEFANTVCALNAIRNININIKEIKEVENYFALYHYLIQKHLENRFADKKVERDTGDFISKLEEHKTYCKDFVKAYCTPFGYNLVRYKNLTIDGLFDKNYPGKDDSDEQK
Assay: crRNA (strand 1, pre-loaded); Mg2+; 40 mM Tris-HCl pH 7.5, 150 mM NaCl, 6 mM MgCl2, 1 mM DTT, 0.1% Tween-20, 0.2 mg/ml BSA; 25 C; 10 min per concentration, then washed
Settings: tags: His6-TwinStrep-SUMO cleaved; N-terminal SNAP kept (SNAP-Surface 488); label: 3' end held by stalled T7 RNA polymerase
One number for each entry, in nM.

Some binders with known Kd results, for comparison:
Binder: target 3 insC 3' of 9,insG 3' of 2 (mixed) RNA 1: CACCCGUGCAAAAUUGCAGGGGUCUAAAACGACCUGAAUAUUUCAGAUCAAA RNA 2: GGGAAUGGAUCCACAUCUACGAAUUCGUUUUUGAUCUGAAAUACUUCAGGUGCUGCAGAUCGGAAGAGCACACGU
Unit info: nM
Kd: 81.5
//
Binder: target 1 U3G,U10A (mixed) RNA 1: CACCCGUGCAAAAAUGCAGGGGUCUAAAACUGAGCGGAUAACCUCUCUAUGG RNA 2: GGGAAUGGAUCCACAUCUACGAAUUCGUACCAUAGAGAGGUAAUCCGCGCACCGAGAUCGGAAGAGCACACGU
Unit info: nM
Kd: 17.2

Each binder below has a reported value. Please supply its Kd.
1. target 1 C7U,U8G (mixed) RNA 1: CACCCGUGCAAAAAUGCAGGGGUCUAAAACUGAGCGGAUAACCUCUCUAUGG RNA 2: GGGAAUGGAUCCACAUCUACGAAUUCGUACCAUAGAGAGGUUAGUCGCUCACCGAGAUCGGAAGAGCACACGU
2. target 1 C4A,C6A (mixed) RNA 1: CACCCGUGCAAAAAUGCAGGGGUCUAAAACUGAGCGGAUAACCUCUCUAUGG RNA 2: GGGAAUGGAUCCACAUCUACGAAUUCGUACCAUAGAGAGGUUAUCAGAUCACCGAGAUCGGAAGAGCACACGU
3. target 2 MT 5'PFS AAG 3'PFS UCG (mixed) RNA 1: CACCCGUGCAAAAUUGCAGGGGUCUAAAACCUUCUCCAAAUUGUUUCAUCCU RNA 2: GGGAAUGGAUCCACAUCUACGAAUUCAAGAGGAUGAAACAAUUUGGAGAAGUCGAGAUCGGAAGAGCACACGU
4. target 2 MT 5'PFS UAC 3'PFS CUG (mixed) RNA 1: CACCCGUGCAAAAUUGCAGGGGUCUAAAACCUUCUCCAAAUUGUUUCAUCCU RNA 2: GGGAAUGGAUCCACAUCUACGAAUUCUACAGGAUGAAACAAUUUGGAGAAGCUGAGAUCGGAAGAGCACACGU

[14.2, 6.17, 4.4, 10.4]

Batch: Kd for all items listed.
1. target 2 MT 5'PFS AUU 3'PFS AAC (mixed) RNA 1: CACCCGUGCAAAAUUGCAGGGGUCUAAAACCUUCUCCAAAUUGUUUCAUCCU RNA 2: GGGAAUGGAUCCACAUCUACGAAUUCAUUAGGAUGAAACAAUUUGGAGAAGAACAGAUCGGAAGAGCACACGU
2. target 2 MT 5'PFS GUG 3'PFS UGU (mixed) RNA 1: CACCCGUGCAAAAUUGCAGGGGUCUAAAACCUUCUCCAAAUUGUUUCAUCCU RNA 2: GGGAAUGGAUCCACAUCUACGAAUUCGUGAGGAUGAAACAAUUUGGAGAAGUGUAGAUCGGAAGAGCACACGU

7.3
27
